The measured values listed here are drawn from patent US11306064B2.

- Measured target: Human LBAT (Homo sapiens)
- Construct: expressed in transfected cells; kept under Geneticin selection
- Sequence (Q14973 1-349): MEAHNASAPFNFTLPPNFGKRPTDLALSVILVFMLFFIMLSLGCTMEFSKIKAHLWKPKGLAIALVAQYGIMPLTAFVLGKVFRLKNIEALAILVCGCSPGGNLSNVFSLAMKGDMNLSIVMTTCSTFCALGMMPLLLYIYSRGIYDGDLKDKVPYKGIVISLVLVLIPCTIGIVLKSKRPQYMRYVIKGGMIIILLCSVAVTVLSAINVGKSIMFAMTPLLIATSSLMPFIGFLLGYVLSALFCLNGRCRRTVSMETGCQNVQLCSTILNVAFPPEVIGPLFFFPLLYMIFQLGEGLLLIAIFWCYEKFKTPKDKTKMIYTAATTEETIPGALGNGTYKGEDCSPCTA
- Protocol: LBAT (h/m) assay: 3H-taurocholic acid uptake in human LBAT-overexpressing cells
- Assay type: cell-based
- Condition parameters: 0.3 μM 3H-taurocholic acid and 7.5 μM cold taurocholic acid, 20 minutes, read-out: hLBAT IC50
Consider the following molecules; for each one, report its pIC50.
Scale for pIC50: -log10 of concentration given in mol/L; no unit attached.

INPUT: Item CCCCC1(CCCC)CN(c2ccccc2)c2cc(SC)c(O/C=C/C(=O)O)cc2S(=O)(=O)C1 [Example 1] : provide pIC50
OUTPUT: 6.84

INPUT: Return pIC50 (reported value) for this molecule: CCCCC1(CCCC)CN(c2ccc(C(=O)NC(C)C)cc2)c2cc(SC)c(O/C=C/C(=O)O)cc2S(=O)(=O)C1 [Example 69]
OUTPUT: 6.44

INPUT: Annotate the molecule CCCCC1(CCCC)CN(c2ccc(N(C)C)cc2)c2cc(SC)c(O/C=C/C(=O)O)cc2S(=O)(=O)C1 [Example 25] with its measured pIC50.
OUTPUT: 6.45

INPUT: Given CCCCC1(CC)CN(c2ccc(NC(=O)C(C)(C)C)cc2)c2cc(SC)c(O/C=C/C(=O)O)cc2S(=O)(=O)C1 (stereo not shown) [Example 34] , respond with its pIC50.
OUTPUT: 7.12

INPUT: Hello, please tell me recorded pIC50 for this one: CCCC[C@@]1(CC)CN(c2ccccc2)c2cc(F)c(O/C=C/C(=O)O)cc2S(=O)(=O)C1 (single isomer, unassigned) [Example 103]
OUTPUT: 6.73

INPUT: Supply pIC50 value. Item: CCCCC1(CCCC)CN(c2ccccc2)c2cc(F)c(O/C=C/C(=O)O)cc2S(=O)(=O)C1 [Example 81]
OUTPUT: 6.68

INPUT: Specify reported pIC50 for the molecule shown: CCCCC1(CC)CN(c2ccccc2)c2cc(F)c(O/C=C(\F)C(=O)O)cc2S(=O)(=O)C1 (stereo not shown) [Example 96]
OUTPUT: 6.64

----------
- Measured target: Human ASBT (Homo sapiens, UniProt Q12908)
- Construct: kept under Puromycin selection
- Protocol: ASBT (h/m) assay: 3H-taurocholic acid uptake in human ASBT-overexpressing cells
- Condition parameters: 0.25 μM 3H-taurocholic acid and 5 μM cold taurocholic acid, 20 minutes, read-out: hASBT IC50
pIC50: −log10 of the molar value.
Rule: pIC50 of 7 or more gives 1; anything lower gives -1.

INPUT: Is it the case that CCCC[C@@]1(CC)CN(c2ccccc2)c2cc(SC)c(O/C=C\C(=O)O)cc2S(=O)(=O)C1 (single isomer, unassigned) has pIC50 reaching or exceeding 7?
OUTPUT: 1

INPUT: Can `CCC1(CC)CN(c2ccccc2)c2cc(SC)c(O/C=C(\F)C(=O)O)cc2S(=O)(=O)C1` be said to have pIC50 at or above 7?
OUTPUT: -1

INPUT: Form field: pIC50 at least 7? Entry: CCCC[C@@]1(CC)CN(c2ccccc2)c2cc(N(C)C)c(O/C=C(\F)C(=O)O)cc2S(=O)(=O)C1 (single isomer, unassigned)
OUTPUT: 1

INPUT: Assess whether reported pIC50 for `CCCCC1(CCCC)CN(c2ccc(NC(=O)C3CCCC3)cc2)c2cc(SC)c(O/C=C/C(=O)O)cc2S(=O)(=O)C1` sits at 7 or higher.
OUTPUT: -1

INPUT: API: above_or_equal(metric=pIC50, cutoff=7) for item `CCCCC1(CCCC)CN(c2ccc(Br)cc2)c2cc(SC)c(O/C=C/C(=O)O)cc2S(=O)(=O)C1`
OUTPUT: -1

INPUT: State whether the measured pIC50 reaches 7, counting equality as reaching it, for `CCCCC1(CCCC)CN(c2ccc(NC(=O)C(C)(C)C)cc2)c2cc(SC)c(O/C=C/C(=O)O)cc2S(=O)(=O)C1`
OUTPUT: -1

INPUT: Could you verify whether the entry CCCCC1(CC)CN(c2ccccc2)c2cc(I)c(O/C=C/C(=O)O)cc2S(=O)(=O)C1 (single isomer, unassigned) [Example 57] shows pIC50 of no less than 7?
OUTPUT: -1

INPUT: # check: pIC50 of `CCC1(CC)CN(c2ccccc2)c2cc(SC)c(O/C=C/C(=O)O)cc2S(=O)(=O)C1` is greater than or equal to 7
OUTPUT: -1

INPUT: Threshold query (pIC50 >= 7) on `CCCCC1(CCCC)CN(c2ccccc2)c2cc(C3CC3)c(O/C=C/C(=O)O)cc2S(=O)(=O)C1`
OUTPUT: -1

INPUT: pIC50 >= 7 for `CCCCC1(CCCC)CN(c2ccc(C(F)(F)F)cc2)c2cc(SC)c(O/C=C/C(=O)O)cc2S(=O)(=O)C1` ?
OUTPUT: -1

INPUT: Test whether the molecule `CCCCC1(CCCC)CN(c2ccc(NC(=O)OC)cc2)c2cc(SC)c(O/C=C/C(=O)O)cc2S(=O)(=O)C1` records pIC50 of 7 or higher.
OUTPUT: -1

INPUT: In plain terms: is recorded pIC50 at least 7 for CCCCC1(CC)CN(c2ccccc2)c2cc(Br)c(O/C=C(\F)C(=O)O)cc2S(=O)(=O)C1 (racemic) ?
OUTPUT: 1

INPUT: Confirm if pIC50 reported for the molecule `CCCCC1(CCCC)CN(c2ccccc2)c2cc(Cl)c(O/C=C(\F)C(=O)O)cc2S(=O)(=O)C1` is 7 or above.
OUTPUT: -1

----------
- Measured target: Human ASBT (Homo sapiens, UniProt Q12908)
- Construct: kept under Puromycin selection
- Sequence (Q12908 1-348): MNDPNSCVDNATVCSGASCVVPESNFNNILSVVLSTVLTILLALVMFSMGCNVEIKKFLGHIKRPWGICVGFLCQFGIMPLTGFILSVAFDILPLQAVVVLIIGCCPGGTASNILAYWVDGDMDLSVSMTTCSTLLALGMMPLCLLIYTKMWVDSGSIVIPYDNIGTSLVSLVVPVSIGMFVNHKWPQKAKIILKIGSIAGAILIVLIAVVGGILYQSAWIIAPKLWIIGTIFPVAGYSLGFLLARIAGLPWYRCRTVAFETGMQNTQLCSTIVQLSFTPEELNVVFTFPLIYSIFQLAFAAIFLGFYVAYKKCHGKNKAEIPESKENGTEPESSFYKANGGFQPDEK
- Protocol: ASBT (h/m) assay: 3H-taurocholic acid uptake in human ASBT-overexpressing cells
- Condition parameters: 0.25 μM 3H-taurocholic acid and 5 μM cold taurocholic acid, 20 minutes, read-out: hASBT IC50
Measured metric: log10 of IC50 (log10 of the value in nM)
Hello, just confirming the data are log10 of IC50 with units of nM.

INPUT: Respond only with log10 of IC50 recorded for CCC1(CC)CN(c2ccccc2)c2cc(Br)c(O/C=C/C(=O)O)cc2S(=O)(=O)C1 [Example 55]
OUTPUT: 2.69

INPUT: Report log10 of IC50 for CCCCC1(CCCC)CN(c2ccc(NS(C)(=O)=O)cc2)c2cc(SC)c(O/C=C/C(=O)O)cc2S(=O)(=O)C1 [Example 10]
OUTPUT: 3.15

INPUT: Consider the compound CCCC[C@@]1(CC)CN(c2ccccc2)c2cc(Br)c(O/C=C(\F)C(=O)O)cc2S(=O)(=O)C1 (single isomer, unassigned) [Example 65] . State its measured log10 of IC50.
OUTPUT: 1.43

INPUT: Return the recorded log10 of IC50 value; entry: CCCCC1(CC)CN(c2ccccc2)c2cc(SCC)c(O/C=C(\F)C(=O)O)cc2S(=O)(=O)C1 (centres unmarked) [Example 72]
OUTPUT: 1.88

INPUT: Give the value of log10 of IC50 reported for the following: CCCC[C@@]1(CC)CN(c2ccccc2)c2cc(NC)c(O/C=C/C(=O)O)cc2S(=O)(=O)C1 (single isomer, unassigned) [Example 92]
OUTPUT: 2.87

INPUT: Give reported log10 of IC50 value for CCCCC1(CCCC)CN(c2ccc(O)cc2)c2cc(SC)c(O/C=C/C(=O)O)cc2S(=O)(=O)C1 [Example 20]
OUTPUT: 1.30

INPUT: Please give measured log10 of IC50 of the following entry: CCCCC1(CCCC)CN(c2ccc(OC)cc2)c2cc(SC)c(O/C=C/C(=O)O)cc2S(=O)(=O)C1 [Example 19]
OUTPUT: 2.11

INPUT: Provide measured log10 of IC50 value, entry: CCCC[C@]1(CC)CN(c2ccccc2)c2cc(SC)c(O/C=C(\F)C(=O)O)cc2S(=O)(=O)N1 (single isomer, unassigned) [Example 86]
OUTPUT: 1.94

INPUT: Query log10 of IC50 for CCCC[C@]1(CC)CN(c2ccccc2)c2cc(SC)c(O/C=C/C(=O)O)cc2S(=O)(=O)N1 (single isomer, unassigned) [Example 78]
OUTPUT: 2.19

INPUT: # return recorded log10 of IC50 for entry CCC1(CC)CN(c2ccccc2)c2cc(I)c(O/C=C/C(=O)O)cc2S(=O)(=O)C1 [Example 54]
OUTPUT: 2.27

INPUT: Respond only with log10 of IC50 recorded for CCCCC1(CC)CN(c2ccccc2)c2cc(SC)c(O/C=C(\F)C(=O)O)cc2S(=O)(=O)N1 (racemic) [Example 84]
OUTPUT: 1.45

INPUT: Report log10 of IC50, nothing else, for this compound: CCCC[C@@]1(CC)CN(c2ccccc2)c2cc(SC)c(O/C=C(\F)C(=O)O)cc2S(=O)(=O)N1 (single isomer, unassigned) [Example 85]
OUTPUT: 0.85

INPUT: Give the value of log10 of IC50 reported for the following: CCCC[C@@]1(CC)CN(c2ccccc2)c2cc(SC)c(O/C=C/C(=O)O)cc2S(=O)(=O)N1C (single isomer, unassigned) [Example 89]
OUTPUT: 3.30
